- MEASUREMENT_NOTES: APR_HepG2_P-H2AX_24hr: Apredica 24-hour HepG2 Assay for H2AX Phosphorylation (AID 2282920)
- RUN_CONDITIONS: high-content imaging, actives raise or lower the signal
Activity calls are given as the source filed them. The calls were made as follows: active = hit-call score of the fitted dose curve at least 0.9, where 1 is the maximum; inactive = score below 0.9.
Entry note: the call must match one of 1 = active, -1 = inactive

Worked set:
O=C(O)COc1ccc(Cl)cc1Cl | -1
COC(=O)c1ccccc1S(=O)(=O)NC(=O)Nc1nc(C)nc(OC)n1 | -1
[2H]C1([2H])[n+]2ccccc2-c2cccc[n+]2C1([2H])[2H] | -1
COP(=S)(OC)Oc1ccc(SC)c(C)c1 | -1
CNC(=O)CSP(=S)(OC)OC | -1
CN1CSC(=S)N(C)C1 | 1
CCCN(CCC)c1c([N+](=O)[O-])cc(C(F)(F)F)cc1[N+](=O)[O-] | -1
CC(C)N(C(=O)COc1nnc(C(F)(F)F)s1)c1ccc(F)cc1 | -1
O=[N+]([O-])c1c(Cl)c(Cl)c(Cl)c(Cl)c1Cl | -1
COc1cc(OC)nc(NC(=O)NS(=O)(=O)c2cc(NC=O)ccc2C(=O)N(C)C)n1 | -1

Could you now consider this next molecule?
*Q* What did the test return for O=C(NC(=O)c1c(F)cccc1F)Nc1ccc(OC(F)(F)C(F)OC(F)(F)F)c(Cl)c1 (stereo unspecified) ?
*A* -1
